Test system: HCI-017.E2 (organoid from an ER-positive breast cancer xenograft)
Test: CTG-3D luminescence at 96 h relative to day-0 seeding control (ratio to day 0); higher = more growth / less cytotoxicity; PDxO 3D drug screen, 96 h, CTG-3D normalised to day-0 seeding control.
Conditions: 100 µM; days in culture: 85
I'd appreciate it if you could supply CTG-3D luminescence at 96 h values for the items below.
One number for each entry.

Use these answered entries as a reference point.
1. C/C=C1\NC(=O)[C@H]2CSSCC/C=C/[C@H](CC(=O)N[C@H](C(C)C)C(=O)N2)OC(=O)[C@H](C(C)C)NC1=O [romidepsin]
-0.00898
2. Nc1ccn([C@@H]2O[C@H](CO)[C@@H](O)C2(F)F)c(=O)n1 [gemcitabine]
1.7
3. Cc1cc(Nc2ncc(Cl)c(Nc3ccccc3S(=O)(=O)C(C)C)n2)c(OC(C)C)cc1C1CCNCC1 [ceritinib]
-0.00537
4. Cc1cc(Nc2ncnc3ccc(NC4=NC(C)(C)CO4)cc23)ccc1Oc1ccn2ncnc2c1 [tucatinib]
0.109
5. CC1(C)CCC(c2ccc(Cl)cc2)=C(CN2CCN(c3ccc(C(=O)NS(=O)(=O)c4ccc(N[C@H](CCN5CCOCC5)CSc5ccccc5)c(S(=O)(=O)C(F)(F)F)c4)cc3)CC2)C1 [navitoclax]
0.14

Now look at this one.
Name the recorded CTG-3D luminescence at 96 h for CNC(=O)c1cccc(-c2ccc3c(N4CCOC[C@@H]4C)nc(N4CCOC[C@@H]4C)nc3n2)c1 [vistusertib] .
0.421

* * *

Test system: HCI-002 (organoid from a triple-negative breast cancer xenograft)
Assay: CTG-3D luminescence at 96 h relative to day-0 seeding control (ratio to day 0); higher = more growth / less cytotoxicity; PDxO 3D drug screen, 96 h, CTG-3D normalised to day-0 seeding control.
Conditions: 0.1 µM; days in culture: 209
measurement.kind: CTG-3D luminescence at 96 h
Give bare numbers.

Use these answered entries as a reference point.
1) Nc1ccn([C@@H]2O[C@H](CO)[C@@H](O)C2(F)F)c(=O)n1
0.339
2) C/C=C1\NC(=O)[C@H]2CSSCC/C=C/[C@H](CC(=O)N[C@H](C(C)C)C(=O)N2)OC(=O)[C@H](C(C)C)NC1=O
-0.00615
3) C[C@]12CC[C@@H]3c4ccc(O)cc4C[C@@H](CCCCCCCCC[S+]([O-])CCCC(F)(F)C(F)(F)F)[C@H]3[C@@H]1CC[C@@H]2O (some centres not stated)
2.23
4) O=C(/C=C/c1cccnc1)NCCCCC1CCN(C(=O)c2ccccc2)CC1
0.0589
5) C=CC(=O)N1CCC[C@@H](n2nc(-c3ccc(Oc4ccccc4)cc3)c3c(N)ncnc32)C1
1.87

// for each compound below, give its CTG-3D luminescence at 96 h
1. Cc1cc(Nc2ncnc3ccc(NC4=NC(C)(C)CO4)cc23)ccc1Oc1ccn2ncnc2c1
2. COc1cccc2c1C(=O)c1c(O)c3c(c(O)c1C2=O)C[C@@](O)(C(=O)CO)C[C@@H]3O[C@H]1C[C@H](N)[C@H](O)[C@H](C)O1

2.02
1.51

* * *

Tested on: HCI-011.E2 (organoid from an ER-positive breast cancer xenograft)
Test: CTG-3D luminescence at 96 h relative to day-0 seeding control (ratio to day 0); higher = more growth / less cytotoxicity; PDxO 3D drug screen, 96 h, CTG-3D normalised to day-0 seeding control.
Conditions: 1 µM; days in culture: 74
measurement.kind: CTG-3D luminescence at 96 h
Answers are plain numbers.

Use these answered entries as a reference point.
1) C/C=C1\NC(=O)[C@H]2CSSCC/C=C/[C@H](CC(=O)N[C@H](C(C)C)C(=O)N2)OC(=O)[C@H](C(C)C)NC1=O
0.486
2) C[C@H](NC(=O)CCC(F)(F)F)C(=O)N[C@@H]1C(=O)N(CCO)c2ncccc2-c2ccccc21
2.51

Now look at this one.
Name the recorded CTG-3D luminescence at 96 h for "CCN1CCN(Cc2ccc(Nc3ncc(F)c(-c4cc(F)c5nc(C)n(C(C)C)c5c4)n3)nc2)CC1" .
2.61
